Attribution: ChEMBL document CHEMBL1134529

Kindly supply the reported half-life values for the records listed here.
Experiment Summary: Compound was evaluated for pharmacokinetic parameter, half life period (T1/2)
Format: ADME, organism-based
Details: in vivo

Sample records with half-life:
Molecule | half-life
Cc1cc(SC2=C(O)O[C@](CCc3ccc(N)cc3)(C(C)C)CC2=O)c(C(C)(C)C)cc1CO | 2.2 h
Cc1cc(SC2=C(O)OC(CCc3nccs3)(C(C)C)CC2=O)c(C(C)(C)C)cc1CO (stereo not given) | 3.3 h

For the 3 molecules below, give their half-life values.
1. Cc1cc(SC2=C(O)OC(CCc3ccoc3)(C(C)C)CC2=O)c(C(C)(C)C)cc1CO (stereo not given)
2. Cc1cc(SC2=C(O)OC(CCc3ccsc3)(C(C)C)CC2=O)c(C(C)(C)C)cc1CO (stereo not given)
3. Cc1cc(SC2=C(O)OC(CCc3ccc(N)cc3)(C(C)C)CC2=O)c(C(C)(C)C)cc1CO (racemic)

5.6 h
3.5 h
2.2 h

----------
Reported log10 of IC50, Human immunodeficiency virus type 1 protease (Human immunodeficiency virus 1).
Note: values are log10 of IC50 expressed in nM.

The cases that follow already have their log10 of IC50 on record.
Molecule | log10 of IC50
Cc1cc(SC2=C(O)OC(CCc3csc(N)n3)(C(C)C)CC2=O)c(C(C)(C)C)cc1CO (stereo not drawn) | -0.02
Cc1cc(SC2=C(O)OC(CCc3cccnc3)(C(C)C)CC2=O)c(C(C)(C)C)cc1CO (stereo not drawn) | -0.03
Cc1cc(SC2=C(O)OC(CCc3ccsc3CO)(C(C)C)CC2=O)c(C(C)(C)C)cc1CO (stereo not drawn) | 1.15
Cc1cc(SC2=C(O)OC(CCc3csc(CO)c3)(C(C)C)CC2=O)c(C(C)(C)C)cc1CO (stereo not drawn) | -0.72
Cc1cc(SC2=C(O)OC(CCc3nc4ccccc4s3)(C(C)C)CC2=O)c(C(C)(C)C)cc1CO (stereo not drawn) | 0.15

Give log10 of IC50 for all molecules that follow.
1. Cc1cc(SC2=C(O)OC(CCc3nc(C(C)C)cs3)(C(C)C)CC2=O)c(C(C)(C)C)cc1CO (stereo not drawn)
2. Cc1cc(SC2=C(O)OC(CCc3ccoc3)(C(C)C)CC2=O)c(C(C)(C)C)cc1CO (stereo not drawn)
3. Cc1cc(SC2=C(O)O[C@](CCc3ccc(N)cc3)(C(C)C)CC2=O)c(C(C)(C)C)cc1CO

1: 1.15; 2: -0.47; 3: -0.96

----------
Hi there, I'd appreciate the recorded log10 IC50 for every entry that follows.
System Under Test: Human immunodeficiency virus type 1 protease (Human immunodeficiency virus 1, UniProt Q72874)
Experiment Summary: HIV-1 protease inhibition.
Please be aware that the numbers have been log10-transformed from IC50 in nM.

Molecule | log10 IC50
Cc1cc(SC2=C(O)OC(CCc3ccc(N)cc3)(C(C)C)CC2=O)c(C(C)(C)C)cc1CO (racemic) | -0.37

Batch lookup, log10 IC50 per entry.
1. Cc1cc(SC2=C(O)OC(CCc3cscc3C)(C(C)C)CC2=O)c(C(C)(C)C)cc1CO (stereo not drawn)
2. Cc1cc(SC2=C(O)OC(CCc3nccs3)(C(C)C)CC2=O)c(C(C)(C)C)cc1CO (stereo not drawn)
3. O=c1cc(-c2ccccc2)oc(O)c1Sc1ccccc1
4. Cc1cc(SC2=C(O)OC(CCc3c[nH]cn3)(C(C)C)CC2=O)c(C(C)(C)C)cc1CO (stereo not drawn)
5. Cc1cc(SC2=C(O)OC(CCc3scnc3C(C)C)(C(C)C)CC2=O)c(C(C)(C)C)cc1CO (stereo not drawn)
6. Cc1cc(SC2=C(O)OC(CCc3c[nH]c4ccccc34)(C(C)C)CC2=O)c(C(C)(C)C)cc1CO (stereo not drawn)

[-0.39, -0.24, 3.48, 1.85, -0.10, -0.14]

Hi team, please reply with log10 IC50 for each item in this list.
1. Cc1cc(SC2=C(O)OC(CCc3cncs3)(C(C)C)CC2=O)c(C(C)(C)C)cc1CO (stereo not drawn)
2. Cc1cc(SC2=C(O)O[C@@](CCc3ccsc3)(C(C)C)CC2=O)c(C(C)(C)C)cc1CO
3. Cc1cc(SC2=C(O)OC(CCC3CCCO3)(C(C)C)CC2=O)c(C(C)(C)C)cc1CO (stereo not drawn)
4. Cc1cc(SC2=C(O)O[C@](CCc3ccsc3)(C(C)C)CC2=O)c(C(C)(C)C)cc1CO

[-0.62, 1.06, 0.70, -0.89]

Provide log10 IC50 for all items below, preserving their order.
1. Cc1cc(SC2=C(O)OC(CCc3ncsc3C(C)C)(C(C)C)CC2=O)c(C(C)(C)C)cc1CO (stereo not drawn)
2. Cc1cc(SC2=C(O)OC(CCc3ccc(CO)s3)(C(C)C)CC2=O)c(C(C)(C)C)cc1CO (stereo not drawn)

1: 0.76; 2: -0.24
